# system: Cathepsin K (Oryctolagus cuniculus, UniProt P43236)
# Sequence (P43236 whole entry): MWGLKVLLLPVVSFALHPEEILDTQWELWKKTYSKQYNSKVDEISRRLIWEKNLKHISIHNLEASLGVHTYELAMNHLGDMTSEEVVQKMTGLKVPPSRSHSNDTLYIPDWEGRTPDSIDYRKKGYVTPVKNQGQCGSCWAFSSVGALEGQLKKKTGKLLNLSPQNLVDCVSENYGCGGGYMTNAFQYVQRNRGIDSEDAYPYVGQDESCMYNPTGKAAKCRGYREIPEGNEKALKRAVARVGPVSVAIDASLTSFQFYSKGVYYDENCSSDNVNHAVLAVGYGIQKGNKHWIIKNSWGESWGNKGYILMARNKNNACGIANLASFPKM
# method: Enzyme Inhibition Assay
# conditions: pH 5.5; 22 °C
quantity.name: pIC50
In simple prose, pIC50 is minus the logarithm base ten of a concentration in moles per litre.

Known results for compounds:
The measured pIC50 that N#CCNC(=O)[C@@H]1CCCC[C@H]1CSc1ccc(N)cc1 (racemic) [racemic mixture] showed for Cathepsin K (Oryctolagus cuniculus, UniProt P43236) is 7.00

The measured pIC50 that CSc1ccc(CC[C@@H]2CCCC[C@H]2C(=O)NCC#N)cc1 [racemic mixture] showed for Cathepsin K (Oryctolagus cuniculus, UniProt P43236) is 8.77

The measured pIC50 that CSc1ccc(/C=C\[C@@H]2CCCC[C@H]2C(=O)NCC#N)cc1 (racemic) [racemic mixture] showed for Cathepsin K (Oryctolagus cuniculus, UniProt P43236) is 9.30

Next:
The measured pIC50 that Cc1ccc(SC[C@@H]2CCCC[C@H]2C(=O)NCC#N)cc1 [racemic mixture] showed for Cathepsin K (Oryctolagus cuniculus, UniProt P43236) is 7.00
